Experiment: Cell viability assay in differentiated neuronal cells (MTT), N2A
Format: cell-based
Conditions: mouse, read-out: % Cell viability ± SD, N2A
The compounds listed here are annotated with their viability at 48 h, 20 µM.
property: viability at 48 h, 20 µM (%)

C=C(C)[C@@H]1CCC(C)=C[C@H]1c1c(O)cc(CCCCC)c(CN2CCC(c3ccccc3)CC2)c1O: 90.6
C=C(C)[C@@H]1CCC(C)=C[C@H]1c1c(O)cc(CCCCC)c(CN2CCN(CC)CC2)c1O: 94.3
C=C(C)[C@@H]1CCC(C)=C[C@H]1c1c(O)cc(CCCCC)c(CN2CCN(c3ncccn3)CC2)c1O: 85.2
C=C(C)[C@@H]1CCC(C)=C[C@H]1c1c(O)cc(CCCCC)c(CN2CCOCC2)c1O: 114
C=C(C)[C@@H]1CCC(C)=C[C@H]1c1c(O)cc(CCCCC)cc1O: 107
C=C(C)[C@@H]1CCC(C)=C[C@H]1c1c(O)cc(CCCCC)c(CN2CCN(C3CC3)CC2)c1O: 97.2

---

Assay: Cell viability assay in differentiated neuronal cells (MTT), SHSY5Y
Type: cell-based
Details: human, read-out: % Cell viability ± SD, SHSY5Y
# if measured viability at 48 h, 20 µM < 90%: Fulfilled  # else: Not fulfilled

C=C(C)[C@@H]1CCC(C)=C[C@H]1c1c(O)cc(CCCCC)c(CN2CCC(C(F)(F)F)CC2)c1O: Fulfilled
C=C(C)[C@@H]1CCC(C)=C[C@H]1c1c(O)cc(CCCCC)c(CNc2cnccn2)c1O: Fulfilled
C=C(C)[C@@H]1CCC(C)=C[C@H]1c1c(O)cc(CCCCC)c(CN2CCC(O)CC2)c1O: Not fulfilled
C=C(C)[C@@H]1CCC(C)=C[C@H]1c1c(O)cc(CCCCC)c(CN2CCCCC2)c1O: Not fulfilled
C=C(C)[C@@H]1CCC(C)=C[C@H]1c1c(O)cc(CCCCC)c(CN2CCN(c3ncccn3)CC2)c1O: Fulfilled
C=C(C)[C@@H]1CCC(C)=C[C@H]1c1c(O)cc(CCCCC)c(CN2CCN(C(C)=O)CC2)c1O: Not fulfilled

---

Assay: Cell viability assay in macrophage RAW264.7 cells (MTT)
Assay type: cell-based
Details: mouse, RAW264.7, 10 μM, read-out: % cell viability ± SD
Rule: measured viability at 24 h, 10 µM below 90% gets True; anything equal to or greater than 90% gets False.

C=C(C)[C@@H]1CCC(C)=C[C@H]1c1c(O)cc(CCCCC)c(CN2CCN(C3CC3)CC2)c1O: False
C=C(C)[C@@H]1CCC(C)=C[C@H]1c1c(O)cc(CCCCC)c(CN2CCCCC2)c1O: True
C=C(C)[C@@H]1CCC(C)=C[C@H]1c1c(O)cc(CCCCC)c(CN2CCOCC2)c1O: True
C=C(C)[C@@H]1CCC(C)=C[C@H]1c1c(O)cc(CCCCC)c(CN2CCN(c3ccccc3)CC2)c1O: False

---

Known inhibition at 5 µM of a selection of compounds
Tested on: nitric oxide (NO) production in RAW264.7 macrophages
Assay: In vitro anti-inflammatory activity: nitric oxide production (Griess) in LPS-exposed RAW264.7 macrophages
Format: cell-based, mouse
Conditions: Mus musculus, RAW264.7; 5 μM, LPS 24 hrs; read-out: % NO Inhibition ± SD
property: inhibition at 5 µM (%)

C=C(C)[C@@H]1CCC(C)=C[C@H]1c1c(O)cc(CCCCC)c(CN2CCC(O)CC2)c1O [A4]: 11.4
C=C(C)[C@@H]1CCC(C)=C[C@H]1c1c(O)cc(CCCCC)c(CN2CCN(CC)CC2)c1O [A9]: 14.6
C=C(C)[C@@H]1CCC(C)=C[C@H]1c1c(O)cc(CCCCC)c(CN2CCOCC2)c1O [A1, 2′-(morpholin-1-ylmethyl)-cannabidiol]: 7.1
C=C(C)[C@@H]1CCC(C)=C[C@H]1c1c(O)cc(CCCCC)c(CN2CCC(C(C)C)CC2)c1O [A3]: 4.9
C=C(C)[C@@H]1CCC(C)=C[C@H]1c1c(O)cc(CCCCC)c(CN2CCC(C(F)(F)F)CC2)c1O [A6]: 7.6

Every entry's value here was drawn from patent US20260315499A1.
